molecular target: Carbonic anhydrase 9 (Homo sapiens, UniProt Q16790); experiment: Inhibition of recombinant human CA9 pre-incubated for 15 mins prior to testing by phenol red-based stopped-flow CO2 hydration assay
Measured Endpoint: Ki (nM)
One number for each entry, in nM.

{"columns": ["Molecule", "Meas Value"],
 "data": [
  ["NS(=O)(=O)c1ccc(NC2CCCCCC2=O)cc1 (stereo not drawn)", 6.4],
  ["COc1ccc(C(=O)CNc2ccc(S(N)(=O)=O)cc2)cc1", 10.1],
  ["COc1ccc(C(=O)CNc2cccc(S(N)(=O)=O)c2)cc1", 54.3],
  ["Cc1ccc(C(=O)CNc2ccc(S(N)(=O)=O)cc2)cc1", 15.2],
  ["CCOC(=O)C(Nc1cccc(S(N)(=O)=O)c1)C(=O)c1ccccc1 (stereo not drawn)", 58.6]
]}

Would you mind giving Ki for every molecule in the list below?
1. CCOC(=O)C(Nc1ccc(S(N)(=O)=O)cc1)C(=O)c1ccc(OC)cc1 (stereo not drawn)
2. COCC(=O)C(Nc1ccc(S(N)(=O)=O)cc1)C(=O)OC (stereo not drawn)
3. COc1ccccc1CC1=C(Nc2ccc(S(N)(=O)=O)cc2)C(=O)N(c2ccccc2)C1=O
4. Cc1ccc(N2C(=O)C(Cc3ccc(Cl)cc3)=C(Nc3ccc(S(N)(=O)=O)cc3)C2=O)cc1
5. COC(=O)C(Nc1ccc(S(N)(=O)=O)cc1)C(=O)OC
6. NS(=O)(=O)c1ccc(NCC(=O)N2CCN(Cc3ccc(Cl)cc3)CC2)cc1
7. COC(=O)C(Nc1ccc(S(N)(=O)=O)cc1)C(=O)c1ccccc1OC (stereo not drawn)

[12.5, 64.1, 68, 81.9, 58.1, 21.2, 25.6]

Query: Ki; subject: COC(=O)C(Nc1cccc(S(N)(=O)=O)c1)C(=O)c1ccc(OC)cc1 (stereo not drawn)
91.9

----------
tested on: MDA-MB-231; experiment: Antiproliferative activity against human MDA-MB-231 cells assessed as reduction in cell viability after 72 hrs under hypoxic condition by MTT assay; conditions: MDA-MB-231, 72 h
Measured Endpoint: pIC50
One number for each entry, as −log10 of the molar value.

{"columns": ["Molecule", "Meas Value"],
 "data": [
  ["Cc1ccc(N2C(=O)C(Cc3ccc(Cl)cc3)=C(Nc3cccc(S(N)(=O)=O)c3)C2=O)cc1", 4.43]
]}

Quick one: pIC50 for Cc1ccc(N2C(=O)C(Cc3ccc(Cl)cc3)=C(Nc3ccc(S(N)(=O)=O)cc3)C2=O)cc1 ?
4.81

----------
target: Carbonic anhydrase 12 (Homo sapiens, UniProt O43570); assay: Inhibition of recombinant human CA12 pre-incubated for 15 mins prior to testing by phenol red-based stopped-flow CO2 hydration assay
Sequence (O43570 whole entry): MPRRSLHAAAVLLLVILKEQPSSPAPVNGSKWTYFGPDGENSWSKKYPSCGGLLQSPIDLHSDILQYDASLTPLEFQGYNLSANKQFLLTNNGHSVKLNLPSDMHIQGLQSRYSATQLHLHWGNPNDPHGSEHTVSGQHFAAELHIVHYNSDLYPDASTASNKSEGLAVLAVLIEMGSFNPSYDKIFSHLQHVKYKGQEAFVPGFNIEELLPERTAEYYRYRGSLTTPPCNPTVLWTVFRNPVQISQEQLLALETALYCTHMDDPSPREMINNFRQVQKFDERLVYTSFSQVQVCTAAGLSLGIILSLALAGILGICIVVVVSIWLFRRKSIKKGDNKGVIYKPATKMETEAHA
Provide the recorded Ki for the entries that follow.

Here are 5 compounds together with their reported answers.
{"columns": ["Compound", "Ki"],
 "data": [
  ["CC(C(=O)Nc1ccc(S(N)(=O)=O)cc1)C(=O)c1ccc(Cl)cc1 (stereo unspecified)", "22.6 nM"],
  ["CC(C)(C)C(=O)CNc1cccc(S(N)(=O)=O)c1", "24.1 nM"],
  ["NS(=O)(=O)c1ccc(NC2CCN(c3nccs3)C2=O)cc1 (stereo unspecified)", "18.8 nM"],
  ["NS(=O)(=O)c1ccc(NC2CCN(c3cccc(C(F)(F)F)c3)C2=O)cc1 (stereo unspecified)", "13.8 nM"],
  ["CCOC(=O)C(C(=O)Nc1ccc(S(N)(=O)=O)cc1)c1ccccc1 (stereo unspecified)", "41.6 nM"]
]}

What does the record list as Ki for CC(C)C(C(=O)Nc1ccc(S(N)(=O)=O)cc1)C(=O)c1ccccc1 (stereo unspecified) ?
35.6 nM

----------
For each record, write down the corresponding pKi.
target: Carbonic anhydrase 12 (Homo sapiens, UniProt O43570); assay: Inhibition of recombinant human CA12 pre-incubated for 15 mins prior to testing by phenol red-based stopped-flow CO2 hydration assay
Give bare numbers, as −log10 of the molar value.

Here is how some compounds turned out for pKi.
{"columns": ["Compound", "Test System", "pKi"],
 "data": [
  ["CCOC(=O)C(Nc1ccc(S(N)(=O)=O)cc1)C(=O)c1ccc(OC)cc1 (stereo not drawn)", "Carbonic anhydrase 12 (Homo sapiens, UniProt O43570)", 7.78],
  ["COC(=O)C(Nc1ccc(S(N)(=O)=O)cc1)C(=O)c1ccccc1OC (stereo not drawn)", "Carbonic anhydrase 12 (Homo sapiens, UniProt O43570)", 7.58]
]}

What measured pKi goes with CCN(CC)C(=O)CNc1cccc(S(N)(=O)=O)c1 ?
7.08

----------
test system: MDA-MB-231; test: Antiproliferative activity against human MDA-MB-231 cells assessed as reduction in cell viability at 100 uM after 72 hrs under hypoxic condition by MTT assay; assay type: functional
Active and inactive are the calls of the source. No cut-off for these calls is given here.
Measured Endpoint: Activity

Some entries whose results are on file:
{"columns": ["Molecule", "Test System", "Activity"],
 "data": [
  ["CCOC(=O)C(Nc1cccc(S(N)(=O)=O)c1)C(=O)c1ccccc1 (stereo not drawn)", "MDA-MB-231", "30%"],
  ["COC(=O)C(Nc1ccc(S(N)(=O)=O)cc1)C(=O)OC", "MDA-MB-231", "inactive"],
  ["NS(=O)(=O)c1cccc(NCC(=O)N2CCN(Cc3ccc(Cl)cc3)CC2)c1", "MDA-MB-231", "inactive"],
  ["NS(=O)(=O)c1ccc(NC2CCCCCC2=O)cc1 (stereo not drawn)", "MDA-MB-231", "30%"],
  ["CC(C)C(C(=O)Nc1ccc(S(N)(=O)=O)cc1)C(=O)c1ccccc1 (stereo not drawn)", "MDA-MB-231", "inactive"]
]}

// for each molecule in input: emit Activity
1. COCCOC(=O)C(Nc1ccc(S(N)(=O)=O)cc1)C(=O)OCCOC
2. CCOC(=O)C(C(=O)Nc1ccc(S(N)(=O)=O)cc1)c1ccccc1 (stereo not drawn)
3. CCN(CC)C(=O)CNc1cccc(S(N)(=O)=O)c1
4. CC(C)OC(=O)C(Nc1ccc(S(N)(=O)=O)cc1)C(=O)OC(C)C

["inactive", "inactive", "inactive", "inactive"]

Kindly give each listed record's Activity.
1. CC(C(=O)Nc1ccc(S(N)(=O)=O)cc1)C(=O)c1ccc(Cl)cc1 (stereo not drawn)
2. CCOC(=O)C(Nc1ccc(S(N)(=O)=O)cc1)C(=O)c1ccc(OC)cc1 (stereo not drawn)
3. NS(=O)(=O)c1ccc(NCC(=O)N2CCN(Cc3ccc(Cl)cc3)CC2)cc1
4. NS(=O)(=O)c1ccc(NC2CCN(c3cccc(C(F)(F)F)c3)C2=O)cc1 (stereo not drawn)

1. 30%
2. inactive
3. inactive
4. inactive

----------
biological target: Carbonic anhydrase 1 (Homo sapiens, UniProt P00915); test: Inhibition of recombinant human CA1 pre-incubated for 15 mins prior to testing by phenol red-based stopped-flow CO2 hydration assay
Sequence (P00915 whole entry): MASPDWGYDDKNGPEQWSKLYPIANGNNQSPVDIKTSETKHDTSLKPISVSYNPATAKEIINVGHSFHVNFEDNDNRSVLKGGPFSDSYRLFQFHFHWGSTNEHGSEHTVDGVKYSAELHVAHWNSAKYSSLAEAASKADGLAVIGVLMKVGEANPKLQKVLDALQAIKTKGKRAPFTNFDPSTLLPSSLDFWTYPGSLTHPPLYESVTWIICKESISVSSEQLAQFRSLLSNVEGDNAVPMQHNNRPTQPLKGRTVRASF
Record form. Attribute: pKi. Fill in for each entry.
Answers are plain numbers, as −log10 of the molar value.

{"columns": ["Molecule", "Test System", "Meas Value"],
 "data": [
  ["CCOC(=O)C(Nc1ccc(S(N)(=O)=O)cc1)c1ccc(Cl)cc1 (configuration not stated)", "Carbonic anhydrase 1 (Homo sapiens, UniProt P00915)", 6.87],
  ["CCN(CC)C(=O)CNc1cccc(S(N)(=O)=O)c1", "Carbonic anhydrase 1 (Homo sapiens, UniProt P00915)", 7.15],
  ["NS(=O)(=O)c1ccc(NC2CCN(c3cccc(C(F)(F)F)c3)C2=O)cc1 (configuration not stated)", "Carbonic anhydrase 1 (Homo sapiens, UniProt P00915)", 6.33]
]}

For each listed entry, give its pKi.
1. CCOC(=O)C(Nc1ccc(S(N)(=O)=O)cc1)C(=O)c1ccccc1 (configuration not stated)
2. CC(C(=O)Nc1ccc(S(N)(=O)=O)cc1)C(=O)c1ccc(Cl)cc1 (configuration not stated)
3. CCN(CC)C(=O)CNc1ccc(S(N)(=O)=O)cc1
4. CC(C)C(C(=O)Nc1ccc(S(N)(=O)=O)cc1)C(=O)c1ccccc1 (configuration not stated)
5. COc1ccc(C(=O)CNc2ccc(S(N)(=O)=O)cc2)cc1
6. COCCOC(=O)C(Nc1ccc(S(N)(=O)=O)cc1)C(=O)OCCOC

[6.61, 6.67, 6.61, 6.74, 6.90, 7.07]

Parameter requested: pKi. Apply to each item below.
1. NS(=O)(=O)c1cccc(NCC(=O)N2CCN(Cc3ccc(Cl)cc3)CC2)c1
2. CCOC(=O)C(C(=O)Nc1cccc(S(N)(=O)=O)c1)C(C)C (configuration not stated)
3. NS(=O)(=O)c1ccc(NC2CCN(c3ccccc3)C2=O)cc1 (configuration not stated)
4. NS(=O)(=O)c1ccc(NCC(=O)N2CCN(Cc3ccc(Cl)cc3)CC2)cc1
5. NS(=O)(=O)c1ccc(NC2CCN(c3nccs3)C2=O)cc1 (configuration not stated)
6. COC(=O)C(Nc1ccc(S(N)(=O)=O)cc1)C(=O)OC

1: 5.40; 2: 6.46; 3: 7.21; 4: 6.83; 5: 6.86; 6: 6.78

# per-item lookup of pKi; items listed below
1. CCOC(=O)C(Nc1ccc(S(N)(=O)=O)cc1)C(=O)OCC
2. COC(=O)C(Nc1cccc(S(N)(=O)=O)c1)C(=O)c1ccc(OC)cc1 (configuration not stated)
3. CCOC(=O)C(Nc1ccc(S(N)(=O)=O)cc1)C(=O)c1ccc(OC)cc1 (configuration not stated)
4. Cc1ccc(C(=O)CNc2ccc(S(N)(=O)=O)cc2)cc1

6.87
5.59
6.50
7.27
